// provenance: patent US20250152746A1

# System: PCSK9 gene
# PROCEDURE_DETAILS: PCSK9 gRNA/SpCas9 editing in primary cynomolgus hepatocytes (Tables 2, 22)
# Format: cell-based, cynomolgus monkey
# CONDITION_INFO: 2500 ng/RNA/mL; SpCas9 mRNA MS002 1:1 by weight
# Protocol: In set of experiments, PCSK9 gRNAs were co-transfected with an equivalent amount (1:1 ratio by weight) of in vitro transcribed commercially available SpCas9 mRNA MS002 purchased from TriLink Biotechnologies into primary human hepatocytes at 2500, 500, or 100 ng/RNA/mL and processed as described in detailed methods. Extracted genomic DNA was analyzed for gene editing at the target site with next-generation sequencing of PCR amplicons generated around the target sites. […]
In the oligonucleotide strings, read from the 5' end, every base follows the letter of its sugar. An asterisk marks phosphorothioate; unmarked linkages are phosphodiester. Other units and linkages are bracketed, terminal groups are in braces. A string of capitals states the bases alone. m = 2'-O-methyl; r = 2'-OH (RNA)
MEASURED_QUANTITY: Cyno Primary Hepatocyte Editing % 2500 (%)
Kindly answer with a numeric value in %, unit omitted.

Here is how some molecules turned out for Cyno Primary Hepatocyte Editing % 2500.
>>> endpoint_result("GA198: PCSK9 gRNA; protospacer CCACCGGGAAATCGAGGGCA (SEQ ID NO: 192) (nucleic acid, sugars from the 5' end m3 r94 m3, linkages s3 o93 s3 (s phosphorothioate, o phosphodiester), T or U not given here) guide: CCACCGGGAAAUCGAGGGCAGUUUUAGAGCUAGAAAUAGCAAGUUAAAAUAAGGCUAGUCCGUUAUCAACUUGAAAAAGUGGCACCGAGUCGGUGCUUUU")
49
>>> endpoint_result("GA225: PCSK9 gRNA; protospacer GGCATCGTCCCGGAAGTTGC (SEQ ID NO: 219) (nucleic acid, sugars from the 5' end m3 r94 m3, linkages s3 o93 s3 (s phosphorothioate, o phosphodiester), T or U not given here) guide: GGCAUCGUCCCGGAAGUUGCGUUUUAGAGCUAGAAAUAGCAAGUUAAAAUAAGGCUAGUCCGUUAUCAACUUGAAAAAGUGGCACCGAGUCGGUGCUUUU")
8.57
>>> endpoint_result("GA178: PCSK9 gRNA; protospacer CTCCTTCAGCACCACCACGT (SEQ ID NO: 172) (nucleic acid) guide: mC*mU*mC*rCrUrUrCrArGrCrArCrCrArCrCrArCrGrUrGrUrUrUrUrArGrArGrCrUrArGrArArArUrArGrCrArArGrUrUrArArArArUrArArGrGrCrUrArGrUrCrCrGrUrUrArUrCrArArCrUrUrGrArArArArArGrUrGrGrCrArCrCrGrArGrUrCrGrGrUrGrCrU*mU*mU*mU")
25.22
>>> endpoint_result("GA188: PCSK9 gRNA; protospacer TATTCATCCGCCCGGTACCG (SEQ ID NO: 182) (nucleic acid) guide: mU*mA*mU*rUrCrArUrCrCrGrCrCrCrGrGrUrArCrCrGrGrUrUrUrUrArGrArGrCrUrArGrArArArUrArGrCrArArGrUrUrArArArArUrArArGrGrCrUrArGrUrCrCrGrUrUrArUrCrArArCrUrUrGrArArArArArGrUrGrGrCrArCrCrGrArGrUrCrGrGrUrGrCrU*mU*mU*mU")
0.06
>>> endpoint_result("GA224: PCSK9 gRNA; protospacer GGCCGCTGACCACCCCTGCC (SEQ ID NO: 218) (nucleic acid, sugars from the 5' end m3 r94 m3, linkages s3 o93 s3 (s phosphorothioate, o phosphodiester), T or U not given here) guide: GGCCGCUGACCACCCCUGCCGUUUUAGAGCUAGAAAUAGCAAGUUAAAAUAAGGCUAGUCCGUUAUCAACUUGAAAAAGUGGCACCGAGUCGGUGCUUUU")
47.5
>>> endpoint_result("GA236: PCSK9 gRNA; protospacer AGCCCTCGCCAGGCGCTGGC (SEQ ID NO: 229) (nucleic acid, sugars from the 5' end m3 r94 m3, linkages s3 o93 s3 (s phosphorothioate, o phosphodiester), T or U not given here) guide: AGCCCUCGCCAGGCGCUGGCGUUUUAGAGCUAGAAAUAGCAAGUUAAAAUAAGGCUAGUCCGUUAUCAACUUGAAAAAGUGGCACCGAGUCGGUGCUUUU")
37.44

*Q* Answer with the recorded Cyno Primary Hepatocyte Editing % 2500 of GA181: PCSK9 gRNA; protospacer GGCTTCCTGGTGAAGATGAG (SEQ ID NO: 175) (nucleic acid) guide: mG*mG*mC*rUrUrCrCrUrGrGrUrGrArArGrArUrGrArGrGrUrUrUrUrArGrArGrCrUrArGrArArArUrArGrCrArArGrUrUrArArArArUrArArGrGrCrUrArGrUrCrCrGrUrUrArUrCrArArCrUrUrGrArArArArArGrUrGrGrCrArCrCrGrArGrUrCrGrGrUrGrCrU*mU*mU*mU only.
*A* 45.12

*Q* Answer with the recorded Cyno Primary Hepatocyte Editing % 2500 of GA241: PCSK9 gRNA; protospacer TGCTGCTGCCCCTGGCGGGT (SEQ ID NO: 234) (nucleic acid, sugars from the 5' end m3 r94 m3, linkages s3 o93 s3 (s phosphorothioate, o phosphodiester), T or U not given here) guide: UGCUGCUGCCCCUGGCGGGUGUUUUAGAGCUAGAAAUAGCAAGUUAAAAUAAGGCUAGUCCGUUAUCAACUUGAAAAAGUGGCACCGAGUCGGUGCUUUU only.
*A* 16.11
